RP-HPLC Retention (% MeCN): recorded values
# ASSAY_PROCEDURE: Average hydrophobicity by analytical reverse-phase HPLC retention
# Type: physicochemical
# MEASUREMENT_CONDITIONS: Supplement table 4 (chemical and physical data for peptoid library); % MeCN at elution in RP-HPLC
Quick reminder: number only, in % MeCN, skip the unit.

COMPOUND: NCCCCNCC(=O)N(CC(=O)N(CC(=O)N(CCCCN)CC(=O)N(CC(=O)N(CC(=O)N(CCCCN)CC(=O)N(CC(=O)N(CC(N)=O)Cc1ccccc1)Cc1ccccc1)Cc1ccccc1)Cc1ccccc1)Cc1ccccc1)Cc1ccccc1 [Peptoid 2]
MEASUREMENT_UNITS: % MeCN
RP-HPLC Retention (% MeCN): 34

Let us examine a further case.
Data request: Please report the measured RP-HPLC Retention (% MeCN) for C[C@@H](c1ccccc1)N(CC(N)=O)C(=O)CN(C(=O)CN(CCN)C(=O)CN(C(=O)CN(C(=O)CNCCN)[C@@H](C)c1ccccc1)[C@@H](C)c1ccccc1)[C@@H](C)c1ccccc1 [Peptoid 12]
Data returned: 33

====

RP-HPLC Retention (% MeCN): recorded values
# ASSAY_PROCEDURE: Average hydrophobicity by analytical reverse-phase HPLC retention
# Assay type: physicochemical
# MEASUREMENT_CONDITIONS: Supplement table 4 (chemical and physical data for peptoid library); % MeCN at elution in RP-HPLC
Non-standard residues stand in square brackets, D forms with d. Residues, ends and D or L forms follow the SMILES beside them. Gly(N-2-aminoethyl) = NCCNCC(=O)O; Nspe = C[C@H](NCC(=O)O)c1ccccc1; Nphe = O=C(O)CNCc1ccccc1; Nlys = NCCCCNCC(=O)O
Quick reminder: number only, in % MeCN, skip the unit.

// known answers, use as guide
MOLECULE: NCCNCC(=O)N(CC(=O)N(CC(=O)N(CCN)CC(=O)N(CC(=O)N(CC(=O)N(CCN)CC(=O)N(CC(=O)N(CC(=O)N(CCN)CC(=O)N(CC(=O)N(CC(N)=O)Cc1ccccc1)Cc1ccccc1)Cc1ccccc1)Cc1ccccc1)Cc1ccccc1)Cc1ccccc1)Cc1ccccc1)Cc1ccccc1 [Peptoid 7] (H-[Gly(N-2-aminoethyl)][Nphe][Nphe][Gly(N-2-aminoethyl)][Nphe][Nphe][Gly(N-2-aminoethyl)][Nphe][Nphe][Gly(N-2-aminoethyl)][Nphe][Nphe]-NH2)
MEASUREMENT_UNITS: % MeCN
RP-HPLC Retention (% MeCN): 37
--
MOLECULE: NCCCCNCC(=O)N(CC(=O)N(CC(=O)N(CCCCN)CC(=O)N(CC(=O)N(CC(=O)N(CCCCN)CC(=O)N(CC(=O)N(CC(=O)N(CCCCN)CC(=O)N(CC(=O)N(CC(N)=O)Cc1ccccc1)Cc1ccccc1)Cc1ccccc1)Cc1ccccc1)Cc1ccccc1)Cc1ccccc1)Cc1ccccc1)Cc1ccccc1 [Peptoid 1] (H-[Nlys][Nphe][Nphe][Nlys][Nphe][Nphe][Nlys][Nphe][Nphe][Nlys][Nphe][Nphe]-NH2)
MEASUREMENT_UNITS: % MeCN
RP-HPLC Retention (% MeCN): 37

Let us examine a further case.
Data request: Please report the measured RP-HPLC Retention (% MeCN) for C[C@@H](c1ccccc1)N(CC(N)=O)C(=O)CN(C(=O)CN(CCN)C(=O)CN(C(=O)CN(C(=O)CN(CCN)C(=O)CN(C(=O)CN(C(=O)CNCCN)[C@@H](C)c1ccccc1)[C@@H](C)c1ccccc1)[C@@H](C)c1ccccc1)[C@@H](C)c1ccccc1)[C@@H](C)c1ccccc1 [Peptoid 11] (H-[Gly(N-2-aminoethyl)][Nspe][Nspe][Gly(N-2-aminoethyl)][Nspe][Nspe][Gly(N-2-aminoethyl)][Nspe][Nspe]-NH2)
Data returned: 39
